- System: Caco-2
- PROTOCOL: cell viability relative to DMSO; higher = less toxic
- CONDITION: 72 h; 10000 nM
MEASUREMENT_TYPE: cell viability (%)
Dear colleague, please return just the value in %, with no unit written.

Summary for this molecule, O=C1O[C@H]([C@@H](O)CO)C([O-])=C1O.[Na+] [sodium-ascorbate] : cell viability is 102

Summary for this molecule, COC(=O)C1=C(C)NC(C)=C(C(=O)OC/C=C/c2ccccc2)C1c1cccc([N+](=O)[O-])c1 (stereo unspecified) : cell viability is 92.6

Summary for this molecule, CN(C)C(=O)Oc1cc(OC(=O)N(C)C)cc(C(O)CNC(C)(C)C)c1 (stereo unspecified) : cell viability is 104

Summary for this molecule, CNCCC=C1c2ccccc2CCc2ccccc21 : cell viability is 70

Summary for this molecule, C1CCC2(CC1)CCNCC2 [4,4-pentamethylenepiperidine] : cell viability is 102

Summary for this molecule, Cc1nc(C)c(Cl)c(O)c1Cl : cell viability is 92.7

Summary for this molecule, CC(C)(C)c1nc(-c2cccc(NS(=O)(=O)c3c(F)cccc3F)c2F)c(-c2ccnc(N)n2)s1 : cell viability is 101

Summary for this molecule, CNC1CCCN(c2c(F)cc3c(=O)c(C(=O)O)cn(C4CC4)c3c2OC)C1 (stereo unspecified) : cell viability is 99.9

Summary for this molecule, COc1ccc(Nc2nccc(NCCO)n2)cc1 : cell viability is 103

Summary for this molecule, Cc1ccc2c(c1)[C@]13CCCC[C@@H]1[C@H](C2)N(C)CC3 : cell viability is 91.8

Summary for this molecule, O=C1NCN(c2ccccc2)C12CCN(CC1COc3ccccc3O1)CC2 (stereo unspecified) : cell viability is 98.2

Summary for this molecule, Nc1cc(C(F)(F)F)c(-c2cc(N3CCOCC3)nc(N3CCOCC3)n2)cn1 : cell viability is 18

Summary for this molecule, Fc1ccc2nc(CCC#Cc3ccccn3)cn2c1 : cell viability is 99.3

Summary for this molecule, CC1(C)CC[C@]2(C(=O)O)CC[C@]3(C)[C@H](C(=O)C=C4[C@@]5(C)C=C(C#N)C(=O)C(C)(C)[C@@H]5CC[C@]43C)[C@@H]2C1 : cell viability is 82.9

Summary for this molecule, NCC1CC(=O)N(Cc2ccccc2)C1 (stereo unspecified) : cell viability is 99.7

Summary for this molecule, C[C@@H](Nc1cc(F)cc(F)c1)c1cc(C(=O)N(C)C)cc2c(=O)cc(N3CCOCC3)oc12 : cell viability is 48

Summary for this molecule, O=C(c1ccc(Cl)cc1)N(Cc1ccccc1)C1CCCCC1 : cell viability is 89.4

Summary for this molecule, O=c1c2ccccc2oc2ccccc12 : cell viability is 106

Summary for this molecule, CCc1c(C(=O)C(N)=O)c2c(OCC(=O)O)cccc2n1Cc1ccccc1 : cell viability is 106

Summary for this molecule, Fc1ccc(C(c2ccc(F)cc2)N2CCN(C/C=C/c3ccccc3)CC2)cc1 : cell viability is 81.6

Summary for this molecule, CC(=O)[C@@]1(O)CC[C@H]2[C@@H]3C[C@H](C)C4=CC(=O)C=C[C@]4(C)[C@@]3(F)[C@@H](O)C[C@@]21C : cell viability is 124

Summary for this molecule, N=C(N)c1ccc(N2CCN(C3CCN(CC(=O)O)CC3)CC2)cc1 : cell viability is 104

Summary for this molecule, CC(C)Oc1cccc(CC(=O)N2CCC[C@](CC[N+]34CCC(c5ccccc5)(CC3)CC4)(c3ccc(Cl)c(Cl)c3)C2)c1 : cell viability is 91.8

Summary for this molecule, O=C1C[C@@H](c2ccc(O)cc2)Oc2cc(O)ccc21 : cell viability is 78.1

Summary for this molecule, O=C(CCCCCN1C(=O)c2cccc3cccc(c23)C1=O)NO : cell viability is 2.4

Summary for this molecule, O=C(O)CN1C(=O)c2cccc3cccc(c23)C1=O : cell viability is 107

Summary for this molecule, CCN(CC)CCCCN1c2ccccc2Oc2ccc(Cl)cc21 : cell viability is 66.1

Summary for this molecule, Cc1c(N)cccc1Cn1ccc(OCCc2cccs2)cc1=O : cell viability is 84.3

Summary for this molecule, CN1CCC(=C2c3ccccc3C=Cc3ccccc32)CC1 : cell viability is 90.3

Summary for this molecule, Nc1ccn([C@H]2C[C@H](O)[C@@H](CO)O2)c(=O)n1 : cell viability is 86.5

Summary for this molecule, CC(C)(O)C(=O)Nc1ccc([N+](=O)[O-])c(C(F)(F)F)c1 [2-hydroxyflutamide] : cell viability is 87.9

Summary for this molecule, CC(=O)Nc1ccc(C(=O)NC(C)(C)C)cc1 : cell viability is 99.9

Summary for this molecule, O=C(Oc1ccc([N+](=O)[O-])cc1)N1CCC(C(O)(c2ccc3c(c2)OCO3)c2ccc3c(c2)OCO3)CC1 : cell viability is 104

Summary for this molecule, CC(C)(C)C(=O)Oc1ccc(S(=O)(=O)Nc2ccccc2C(=O)NCC(=O)O)cc1 : cell viability is 91.3

Summary for this molecule, Clc1ccc(N2CCN(Cc3c[nH]c4ncccc34)CC2)cc1 : cell viability is 87

Summary for this molecule, CN1C(=O)C(F)=C[C@]2(C)[C@H]3CC[C@]4(C)[C@@H](C(=O)NCc5nc6cccnc6[nH]5)CC[C@H]4[C@@H]3CC[C@@H]12 : cell viability is 87.7

Attribution: the supplement of paper PMC13380429
